Can you tell me melting point for the items I'm about to list?

Request: Quick one: melting point of `O=c1c2c(Cc3ccc(O)cc3)n[nH]c2c2cccnc2n1-c1ccccc1` ?
Response: 316 to 317 °C

Request: Quick one: melting point of O=C(O)c1ccc(CCc2n[nH]c3c2c(=O)n(-c2ccccc2)c2ncccc32)cc1 (hydrate or solvate) ?
Response: 318 to 320 °C

Request: Quick one: melting point of CCOC(=O)Cc1ccc(Cc2n[nH]c3c2c(=O)n(-c2ccccc2)c2ncccc32)cc1 (hydrate or solvate) ?
Response: 263 to 264 °C

Request: Quick one: melting point of `CS(=O)(=O)Nc1ccc(Cc2n[nH]c3c2c(=O)n(-c2ccccc2)c2ncccc32)cc1` ?
Response: 306 to 307 °C

Request: Quick one: melting point of N#Cc1ccccc1CCc1n[nH]c2c1c(=O)n(-c1ccccc1)c1ncccc21 (hydrate or solvate) ?
Response: 315.5 to 316.5 °C

Request: Quick one: melting point of `O=c1c2c(Cc3cccnc3)n[nH]c2c2cccnc2n1-c1ccccc1` ?
Response: 306 °C (dec.)

Request: Quick one: melting point of COc1ccc(Cc2n[nH]c3c2c(=O)n(-c2ccccc2)c2ncccc32)c(OC)c1 (hydrate or solvate) ?
Response: 266 to 267 °C

Request: Quick one: melting point of CS(=O)(=O)c1ccc(Cc2n[nH]c3c2c(=O)n(-c2ccccc2)c2ncccc32)cc1 (hydrate or solvate) ?
Response: 311.5 to 312.5 °C

Request: Quick one: melting point of O=c1c2c(Cc3cccs3)n[nH]c2c2cccnc2n1-c1ccccc1 (hydrate or solvate) ?
Response: 282 to 284 °C

Request: Quick one: melting point of O=C(O)c1ccccc1CCc1n[nH]c2c1c(=O)n(-c1ccccc1)c1ncccc21 (hydrate or solvate) ?
Response: 302 to 308 °C

Request: Quick one: melting point of `O=c1c2c(CCc3ccncc3)n[nH]c2c2cccnc2n1-c1ccccc1` ?
Response: 267 to 269 °C

Request: Quick one: melting point of N#Cc1ccc(Cc2n[nH]c3c2c(=O)n(-c2ccccc2)c2ncccc32)cc1 (hydrate or solvate) ?
Response: 316 to 318 °C (dec.)

Request: Quick one: melting point of `O=C(O)c1cccc(CCc2n[nH]c3c2c(=O)n(-c2ccccc2)c2ncccc32)c1` ?
Response: 159 to 161 °C

Request: Quick one: melting point of COc1cccc(Cc2n[nH]c3c2c(=O)n(-c2ccccc2)c2ncccc32)c1 (hydrate or solvate) ?
Response: 234 to 236 °C

Request: Quick one: melting point of COc1ccc(OC)c(Cc2n[nH]c3c2c(=O)n(-c2ccccc2)c2ncccc32)c1 (hydrate or solvate) ?
Response: 248 to 250 °C
